Target: 5-HT1A receptor (Homo sapiens, UniProt P08908)
Sequence (P08908 whole entry): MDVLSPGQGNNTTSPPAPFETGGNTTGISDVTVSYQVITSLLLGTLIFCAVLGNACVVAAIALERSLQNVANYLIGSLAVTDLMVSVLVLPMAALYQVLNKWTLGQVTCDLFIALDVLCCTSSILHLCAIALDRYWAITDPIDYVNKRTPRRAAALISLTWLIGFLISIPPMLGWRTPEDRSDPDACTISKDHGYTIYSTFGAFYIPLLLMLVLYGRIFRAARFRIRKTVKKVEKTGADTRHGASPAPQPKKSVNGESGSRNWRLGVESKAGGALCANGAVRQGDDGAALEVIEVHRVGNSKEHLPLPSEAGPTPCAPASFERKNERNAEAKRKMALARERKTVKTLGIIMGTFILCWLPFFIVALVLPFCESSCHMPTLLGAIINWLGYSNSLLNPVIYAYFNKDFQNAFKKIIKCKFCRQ
Assay: 5-HT1A calcium mobilization assay in Gα16-CHO cells
Format: cell-based
Conditions: calcium mobilization, Gα16-CHO; mean ± SEM, three experiments in duplicate
Answer each item with its documented 5-HT1A Emax.
One number for each entry, in %.

Here are 4 molecules together with their reported answers.
| MOLECULE | SYSTEM NAME | 5-HT1A Emax, % |
| --- | --- | --- |
| CCCN(CCC)CCc1c[nH]c2ccc(OC)cc12 [Compound 28] | 5-HT1A receptor (Homo sapiens, UniProt P08908) | 43 |
| COc1ccc2[nH]cc(CCN)c2c1 [Compound 25] | 5-HT1A receptor (Homo sapiens, UniProt P08908) | 66 |
| COc1ccc2[nH]cc(CCN(C)C)c2c1 [Compound 7, N,N-dimethyl-5-methoxytryptamine] | 5-HT1A receptor (Homo sapiens, UniProt P08908) | 68 |
| CNCCc1c[nH]c2ccc(OC)cc12 [Compound 17] | 5-HT1A receptor (Homo sapiens, UniProt P08908) | 72 |

Query: Read off the recorded 5-HT1A Emax for CCN(CC)CCc1c[nH]c2ccc(OC)cc12 [Compound 26]
Reply: 67
